Hello, the source for this data is patent US10829473B2, in case you need it.

// reported EC50 per item
# experimental.system: F508delCFTR (Homo sapiens, UniProt P13569, DEL508-508)
# Construct: expressed in transfected cells; host or cells: CFBE41o- human lung derived epithelial cells (CFBE41o-F508delCFTR-HRP), doxycycline-inducible
# Sequence (P13569 with tags, fused parts or gaps DEL508-508): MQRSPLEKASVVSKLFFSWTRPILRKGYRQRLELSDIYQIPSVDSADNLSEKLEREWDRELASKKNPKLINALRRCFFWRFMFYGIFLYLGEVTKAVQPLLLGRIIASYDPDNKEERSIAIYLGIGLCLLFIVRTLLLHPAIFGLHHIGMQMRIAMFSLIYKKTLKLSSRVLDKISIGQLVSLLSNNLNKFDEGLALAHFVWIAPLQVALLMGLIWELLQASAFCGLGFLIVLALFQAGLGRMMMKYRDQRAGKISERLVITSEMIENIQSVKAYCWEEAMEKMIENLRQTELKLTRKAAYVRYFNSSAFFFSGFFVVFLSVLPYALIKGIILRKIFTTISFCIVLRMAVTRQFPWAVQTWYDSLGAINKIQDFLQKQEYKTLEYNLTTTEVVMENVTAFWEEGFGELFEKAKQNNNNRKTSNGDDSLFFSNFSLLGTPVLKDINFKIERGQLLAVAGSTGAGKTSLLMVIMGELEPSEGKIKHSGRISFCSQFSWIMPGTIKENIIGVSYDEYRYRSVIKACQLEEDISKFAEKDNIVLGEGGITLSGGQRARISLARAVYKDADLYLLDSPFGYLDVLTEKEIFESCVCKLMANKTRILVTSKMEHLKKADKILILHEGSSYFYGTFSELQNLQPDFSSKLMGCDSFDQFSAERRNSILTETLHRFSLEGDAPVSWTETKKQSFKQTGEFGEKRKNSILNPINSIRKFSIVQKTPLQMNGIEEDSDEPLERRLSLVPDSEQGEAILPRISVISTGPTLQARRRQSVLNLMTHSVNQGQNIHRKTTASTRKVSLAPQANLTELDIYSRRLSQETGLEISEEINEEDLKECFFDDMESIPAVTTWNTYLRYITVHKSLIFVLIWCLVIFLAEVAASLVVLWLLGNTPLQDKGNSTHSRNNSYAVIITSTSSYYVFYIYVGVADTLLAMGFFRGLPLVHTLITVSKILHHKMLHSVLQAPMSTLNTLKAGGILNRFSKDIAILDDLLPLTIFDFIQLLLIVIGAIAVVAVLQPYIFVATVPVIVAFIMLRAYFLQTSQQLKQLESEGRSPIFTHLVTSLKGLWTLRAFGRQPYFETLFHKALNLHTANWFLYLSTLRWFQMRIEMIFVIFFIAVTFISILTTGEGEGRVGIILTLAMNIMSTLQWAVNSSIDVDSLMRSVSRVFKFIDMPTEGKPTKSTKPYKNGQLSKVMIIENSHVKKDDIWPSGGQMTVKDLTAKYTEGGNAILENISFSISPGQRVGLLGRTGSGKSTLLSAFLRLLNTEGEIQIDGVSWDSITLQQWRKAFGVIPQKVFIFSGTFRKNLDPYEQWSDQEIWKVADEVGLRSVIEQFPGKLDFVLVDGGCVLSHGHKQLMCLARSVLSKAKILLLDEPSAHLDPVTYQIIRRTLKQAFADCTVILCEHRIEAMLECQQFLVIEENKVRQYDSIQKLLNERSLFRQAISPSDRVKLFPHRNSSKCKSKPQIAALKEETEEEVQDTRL
# method: Cell Surface Expression-Horse Radish Peroxidase (CSE-HRP) Assay;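 on EC50 (with co-corrector): co-corrector chromenyl benzoic acid corrector at 2 or 3 µM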
# Format: cell-based
# condition.details: with co-corrector; read-out: EC50 (with co-corrector)
measured.attribute: EC50

In [3]: df
Out[3]:
                               given_smiles     reading
0  Cc1ccc(OC(C)C)c(C2(C(=O)NS(=O)(=O)c3cccc4nc(C)ccc34)CC2)c1      < 3 µM
1  O=C(NS(=O)(=O)c1ccccc1)C1(c2ccc(Cl)cc2)CCC1  3 to 10 µM
2  CCc1ccc(OC(F)F)c(C2(C(=O)NS(=O)(=O)c3cccc4ncccc34)CC2)c1      < 3 µM
3  CN(C)c1ncc(C(F)(F)F)cc1C1(C(=O)NS(=O)(=O)c2cccc3ncccc23)CC1      < 3 µM
4  O=C(NS(=O)(=O)Cc1ccccc1)C1(c2cccc(Cl)c2)CC1     > 10 µM
5  COc1cc(C2CCC2)cc(OC)c1C1(C(=O)NS(=O)(=O)c2cccc3ncccc23)CC1      < 3 µM
6  O=C(NS(=O)(=O)Cc1ccccc1)C1(c2ccccc2Cl)CC1  3 to 10 µM
7  COc1ccccc1C1(C(=O)NS(=O)(=O)c2cccc3ncccc23)CCC1      < 3 µM

###

# experimental.system: F508delCFTR (Homo sapiens, UniProt P13569, DEL508-508)
# Construct: expressed in transfected cells; host or cells: CFBE41o- human lung derived epithelial cells (CFBE41o-F508delCFTR-HRP), doxycycline-inducible
# method: Cell Surface Expression-Horse Radish Peroxidase (CSE-HRP) Assay;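 on Maximum % activity (without co-corrector): % of on-plate positive control chromenyl benzoic acid corrector at 2 or 3 µM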
# Type: cell-based
# condition.details: without co-corrector; maximum at any tested concentration; read-out: Maximum % activity (without co-corrector)
measured.attribute: Emax

>>> df
                               given_smiles  measured_attribute     reading
0  COCC1(c2ccc(OC)c(C3(C(=O)NS(=O)(=O)c4cccc5nc(C)ccc45)CC3)c2)CC1                Emax      > 150%
1  COc1ncc(C2CCC2)cc1C1(C(=O)NS(=O)(=O)c2cccc3ncc(C)n23)CC1                Emax      > 150%
2  O=C(NS(=O)(=O)c1cc([N+](=O)[O-])ccc1Cl)C1(c2cccc(Cl)c2)CC1                Emax       < 50%
3  COc1ccc(C)nc1C1(C(=O)NS(=O)(=O)c2cccc3ncccc23)CC1                Emax  50 to 150%

###

# experimental.system: F508delCFTR (Homo sapiens, UniProt P13569, DEL508-508)
# Construct: expressed in transfected cells; host or cells: CFBE41o- human lung derived epithelial cells (CFBE41o-F508delCFTR-HRP), doxycycline-inducible
# method: Cell Surface Expression-Horse Radish Peroxidase (CSE-HRP) Assay
# Type: cell-based
# condition.details: test compound with co-corrector; maximum at any tested concentration
measured.attribute: Maximum % activity (with co-corrector)

                                given_smiles             reading
 0  O=C(NS(=O)(=O)c1cccc2ncccc12)C1(c2cccnc2N2CCCC2)CC1  ++ (≥150 and <350)
 1  CN1CCN(c2ncc(C3CCC3)cc2C2(C(=O)NS(=O)(=O)c3cccc4ncccc34)CC2)CC1            + (<150)
 2  COCCOc1ncc(OC)cc1C1(C(=O)NS(=O)(=O)c2cccc3[nH]ccc23)CC1  ++ (≥150 and <350)
 3  COCCOc1ncc(C)cc1C1(C(=O)NS(=O)(=O)c2cccc3[nH]ccc23)CC1          +++ (≥350)
 4  O=C(NS(=O)(=O)c1cccc2ncccc12)C1(c2ncc(C(F)(F)F)cc2Cl)CC1  ++ (≥150 and <350)
 5  O=C(NS(=O)(=O)c1cccc2ncccc12)C1(c2cc(C3CC3)cnc2N2CCCC2)CC1          +++ (≥350)
 6  Cc1ccc2c(S(=O)(=O)NC(=O)C3(c4cc(C5CCC5)cnc4OCC(C)C)CC3)cccc2n1          +++ (≥350)
 7  COCCOc1ncc(OC)cc1C1(C(=O)NS(=O)(=O)c2cccc3nc(C)ccc23)CC1  ++ (≥150 and <350)
 8  Cc1cnc(OCC2CC2)c(C2(C(=O)NS(=O)(=O)c3cccc4ncccc34)CC2)c1          +++ (≥350)
 9  COCCOc1ncc(OC)cc1C1(C(=O)NS(=O)(=O)c2cccc3ncccc23)CC1  ++ (≥150 and <350)
10  CCc1ncc(OC)cc1C1(C(=O)NS(=O)(=O)c2cccc3ncccc23)CC1  ++ (≥150 and <350)
11  Cc1ccc2c(S(=O)(=O)NC(=O)C3(c4cc(C5CCC5)cnc4OCC4CC4)CC3)cccc2n1          +++ (≥350)
12  Cc1ccc2c(S(=O)(=O)NC(=O)C3(c4cc(Cl)cnc4N4CCCC4)CC3)cccc2n1          +++ (≥350)
13  CCc1ccncc1C1(C(=O)NS(=O)(=O)c2cccc3ccccc23)CC1  ++ (≥150 and <350)
14  COc1ncc(C2(C(=O)NS(=O)(=O)c3cccc4ncccc34)CC2)c(OC)n1            + (<150)
15  CCc1cnc(N2CCCC2)c(C2(C(=O)NS(=O)(=O)c3cccc4c3CCCN4)CC2)c1  ++ (≥150 and <350)
16  CC(C)COc1ncc(C2CCC2)cc1C1(C(=O)NS(=O)(=O)c2cccc3[nH]ccc23)CC1          +++ (≥350)
17  COc1cnc(OCC(C)C)c(C2(C(=O)NS(=O)(=O)c3cccc4[nH]ccc34)CC2)c1          +++ (≥350)
18  COc1nc(N(C)C)ccc1C1(C(=O)NS(=O)(=O)c2cccc3ncccc23)CC1          +++ (≥350)
19  CCc1ccc(OC(C)C)c(C2(C(=O)NS(=O)(=O)c3cccc4[nH]ccc34)CC2)n1          +++ (≥350)
20  COc1cc(C2(C(=O)NS(=O)(=O)c3cccc4ncccc34)CC2)c(OC(F)F)cn1  ++ (≥150 and <350)
21  CCc1cnc(OCC2CC2)c(C2(C(=O)NS(=O)(=O)c3cccc4[nH]ccc34)CC2)c1          +++ (≥350)
22  CCc1cnc(OCC(C)C)c(C2(C(=O)NS(=O)(=O)c3cccc4ncccc34)CC2)c1          +++ (≥350)
23  COc1nc(C(F)(F)F)ccc1C1(C(=O)NS(=O)(=O)c2cccc3c2CCCN3)CC1          +++ (≥350)
24  Cc1cnc(C2(C(=O)NS(=O)(=O)c3cccc4[nH]ccc34)CC2)c(C2CC2)c1  ++ (≥150 and <350)
25  COCCOc1cnc(OC)cc1C1(C(=O)NS(=O)(=O)c2cccc3ncccc23)CC1  ++ (≥150 and <350)
26  CCc1cnc(N2CCC(OC(C)C)CC2)c(C2(C(=O)NS(=O)(=O)c3cccc4nc(C)ccc34)CC2)c1          +++ (≥350)
27  CC(C)OC1CCN(c2ncc(C3CCC3)cc2C2(C(=O)NS(=O)(=O)c3cccc4ncccc34)CC2)CC1          +++ (≥350)
28  Cc1cnc(OC(C)C)c(C2(C(=O)NS(=O)(=O)c3cccc4[nH]ccc34)CC2)c1          +++ (≥350)
29  CC(C)Oc1ncc(N2CCCC2)cc1C1(C(=O)NS(=O)(=O)c2cccc3ncccc23)CC1          +++ (≥350)
30  CCc1cnc(OC(C)C)c(C2(C(=O)NS(=O)(=O)c3cccc4nc(C)ccc34)CC2)c1          +++ (≥350)
31  CC(C)COc1ccc(OC(C)C)c(C2(C(=O)NS(=O)(=O)c3cccc4[nH]ccc34)CC2)n1          +++ (≥350)

###

# experimental.system: F508delCFTR (Homo sapiens, UniProt P13569, DEL508-508)
# Construct: expressed in transfected cells; host or cells: CFBE41o- human lung derived epithelial cells (CFBE41o-F508delCFTR-HRP), doxycycline-inducible
# method: Cell Surface Expression-Horse Radish Peroxidase (CSE-HRP) Assay;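 on EC50 (with co-corrector): co-corrector chromenyl benzoic acid corrector at 2 or 3 µM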
# Format: cell-based
# condition.details: with co-corrector; read-out: EC50 (with co-corrector)
pEC50: −log10 of the molar value.
# pEC50 listing for each entry below
measured.attribute: pEC50

                                    compound       reading
 0  COc1ccc(C2CCC2)cc1C1(C(=O)NS(=O)(=O)c2cccc3ncn(C)c23)CCC1        > 5.52
 1  CCc1ccc(O[C@@H]2CCOC2)c(C2(C(=O)NS(=O)(=O)c3cccc4ncccc34)CC2)c1        > 5.52
 2  O=C(OCc1ccccc1)N1CCC(S(=O)(=O)NC(=O)C2(c3ccc(Cl)cc3Cl)CC2)CC1  5.00 to 5.52
 3  CCOc1ccc(C)cc1C1(C(=O)NS(=O)(=O)c2cccc3nc(OC)ccc23)CC1        > 5.52
 4  COc1ccc(Br)cc1C1(C(=O)NS(=O)(=O)c2cccc3c2CCCN3)CC1        > 5.52
 5  Cc1ccc(O[C@H]2CCOC2)c(C2(C(=O)NS(=O)(=O)c3cccc4nc(C)ccc34)CC2)c1        > 5.52
 6  Cc1ccc(OC(C)C)c(C2(C(=O)NS(=O)(=O)c3cccc4ncccc34)CC2)c1        > 5.52
 7  Cc1ccccc1S(=O)(=O)NC(=O)C1(c2ccc3c(c2)OCO3)CC1  5.00 to 5.52
 8  COc1ccc(C)cc1C1(C(=O)NS(=O)(=O)c2cccc3[nH]ccc23)CC1        > 5.52
 9  O=C(NS(=O)(=O)c1cccc2ccccc12)C1(c2ccc(C(F)(F)F)nc2C2CCC2)CC1        > 5.52
10  Cc1ccc(C2(C(=O)NS(=O)(=O)Cc3ccccc3)CC2)cc1  5.00 to 5.52
11  COc1ccc(C2CCC2)cc1C1(C(=O)NS(=O)(=O)c2cccc3nc(N)ccc23)CC1        > 5.52
12  CO[C@H](C)COc1ccc(C)cc1C1(C(=O)NS(=O)(=O)c2cccc3ncccc23)CC1        > 5.52
13  O=C(NS(=O)(=O)c1cc([N+](=O)[O-])ccc1Cl)C1(c2cccc(Cl)c2)CC1        < 5.00
14  COc1ccc(C2CC2)c(C)c1C1(C(=O)NS(=O)(=O)c2cccc3[nH]ncc23)CC1        > 5.52
15  COc1cc(OC(C)C)c(C2(C(=O)NS(=O)(=O)c3cccc4nc(C)ccc34)CC2)cn1        > 5.52
16  COc1cc(C2(C(=O)NS(=O)(=O)c3cccc4nc(C)ccc34)CC2)c(OCC(C)C)cn1        > 5.52
17  O=C(NS(=O)(=O)c1ccccc1OC(F)(F)F)C1(c2ccc(Cl)cc2Cl)CC1        > 5.52
18  COc1ccc(C23CC(C2)C3)cc1C1(C(=O)NS(=O)(=O)c2cccc3ncccc23)CC1        > 5.52
19  CCOC(C)(C)c1ccc(OC(F)F)c(C2(C(=O)NS(=O)(=O)c3cccc4nc(C)ccc34)CC2)c1        > 5.52
20  COc1cc(C2CCC2)cc(OC)c1C1(C(=O)NS(=O)(=O)c2cccc3[nH]ccc23)CC1        > 5.52
21  COc1ccc2c(S(=O)(=O)NC(=O)C3(c4cc(C5CCC5)cnc4OCC(C)C)CC3)cccc2n1        > 5.52
22  COC(=O)c1ccc(S(=O)(=O)NC(=O)C2(c3ccc(Cl)cc3Cl)CC2)o1        < 5.00
23  CO[C@@H](C)COc1ccc(C)cc1C1(C(=O)NS(=O)(=O)c2cccc3nc(C)ccc23)CC1        > 5.52
24  CCn1nc(C)cc1C1(C(=O)NS(=O)(=O)c2cccc3ccccc23)CC1  5.00 to 5.52
25  COc1ccc(C(OC)C(F)(F)F)cc1C1(C(=O)NS(=O)(=O)c2cccc3ncccc23)CC1 (centres unmarked)        > 5.52
26  Cc1ccccc1S(=O)(=O)NC(=O)C1(c2ccc(Cl)cc2Cl)CC1  5.00 to 5.52
27  Cc1ccc(OC(C)C)c(C2(C(=O)NS(=O)(=O)c3cccc4nc(N)ccc34)CC2)c1        > 5.52
28  CC(=O)N1CCC(S(=O)(=O)NC(=O)C2(c3ccc(Cl)cc3Cl)CC2)CC1        < 5.00
29  CC(C)(C)OC(=O)N1CCC(S(=O)(=O)NC(=O)C2(c3ccc(Cl)cc3Cl)CC2)CC1        < 5.00
30  CNC1(c2ccc(OC)c(C3(C(=O)NS(=O)(=O)c4cccc5ncccc45)CC3)c2)CC1  5.00 to 5.52
31  O=C(O)c1ccccc1S(=O)(=O)NC(=O)C1(c2ccc(Cl)cc2Cl)CC1        < 5.00
